Tested on: Human immunodeficiency virus 1
measurement_protocol: Antiviral activity against HIV-1 CH58TF infected in primary CD4 T cells isolated from PBMC assessed as antibody dependent cellular toxicity (ADCC) by measuring killing of p24+ infected cells at 50 uM FACS-based ADCC assay
Format: functional, organism-based
settings: T cell
Active and inactive are the calls of the source. The calls are words filed in the database; no cut-off is given here.
Answer with one of the outcomes given here: label 1 (active), label 0 (inactive)

N=C(N)NC[C@H]1Cc2cc(CN3CC[C@@H](O)C3)ccc2[C@@H]1NC(=O)C(=O)Nc1ccc(Cl)c(F)c1 ... label 1
N=C(N)NC[C@H]1Cc2cc(CN3CCNCC3)ccc2[C@@H]1NC(=O)C(=O)Nc1ccc(Cl)c(F)c1 ... label 1
N=C(N)NC[C@H]1Cc2cc(CN[C@H]3CNC[C@@H]3O)ccc2[C@@H]1NC(=O)C(=O)Nc1ccc(Cl)c(F)c1 ... label 1
N=C(N)NC[C@H]1Cc2cc(CN3CC[C@H](O)C3)ccc2[C@@H]1NC(=O)C(=O)Nc1ccc(Cl)c(F)c1 ... label 1
N=C(N)NC[C@H]1Cc2cc(CN3CCCC3)ccc2[C@@H]1NC(=O)C(=O)Nc1ccc(Cl)c(F)c1 ... label 1

Moving on to the next molecule.
Any idea what this test logged for N=C(N)NC[C@H]1Cc2cc(CN3CCC[C@H]3CO)ccc2[C@@H]1NC(=O)C(=O)Nc1ccc(Cl)c(F)c1 ?
label 1
